Tested on: Mycobacterium tuberculosis
Assay: Antitubercular activity against Mycobacterium tuberculosis SRMV2.6 harboring IMPDH2 Y487C mutant using 7H9/ADC/Tween medium after 1 week in absence of guanine by Alamar blue assay
Format: functional
Field: MIC. Provide a value for each of the compounds that follow.
The reply should contain only the number, in µM.

Quick one: MIC for "C[C@H](Oc1cccc(Cl)c1Cl)C(=O)Nc1ccc2oc(-c3ccc(C(=O)O)cc3)nc2c1" ?
25

Quick one: MIC for "CCOC(=O)COc1ccc(-c2nc3cc(NC(=O)[C@H](C)Oc4cccc(Cl)c4Cl)ccc3o2)cc1" ?
3.1

Sourced from ChEMBL document CHEMBL4184333
